These entries and their values trace back to ChEMBL document CHEMBL2218924.

system.under.test: Protein-tyrosine kinase 2-beta (Homo sapiens) (UniProt Q14289)
Sequence (Q14289 whole entry, looked up): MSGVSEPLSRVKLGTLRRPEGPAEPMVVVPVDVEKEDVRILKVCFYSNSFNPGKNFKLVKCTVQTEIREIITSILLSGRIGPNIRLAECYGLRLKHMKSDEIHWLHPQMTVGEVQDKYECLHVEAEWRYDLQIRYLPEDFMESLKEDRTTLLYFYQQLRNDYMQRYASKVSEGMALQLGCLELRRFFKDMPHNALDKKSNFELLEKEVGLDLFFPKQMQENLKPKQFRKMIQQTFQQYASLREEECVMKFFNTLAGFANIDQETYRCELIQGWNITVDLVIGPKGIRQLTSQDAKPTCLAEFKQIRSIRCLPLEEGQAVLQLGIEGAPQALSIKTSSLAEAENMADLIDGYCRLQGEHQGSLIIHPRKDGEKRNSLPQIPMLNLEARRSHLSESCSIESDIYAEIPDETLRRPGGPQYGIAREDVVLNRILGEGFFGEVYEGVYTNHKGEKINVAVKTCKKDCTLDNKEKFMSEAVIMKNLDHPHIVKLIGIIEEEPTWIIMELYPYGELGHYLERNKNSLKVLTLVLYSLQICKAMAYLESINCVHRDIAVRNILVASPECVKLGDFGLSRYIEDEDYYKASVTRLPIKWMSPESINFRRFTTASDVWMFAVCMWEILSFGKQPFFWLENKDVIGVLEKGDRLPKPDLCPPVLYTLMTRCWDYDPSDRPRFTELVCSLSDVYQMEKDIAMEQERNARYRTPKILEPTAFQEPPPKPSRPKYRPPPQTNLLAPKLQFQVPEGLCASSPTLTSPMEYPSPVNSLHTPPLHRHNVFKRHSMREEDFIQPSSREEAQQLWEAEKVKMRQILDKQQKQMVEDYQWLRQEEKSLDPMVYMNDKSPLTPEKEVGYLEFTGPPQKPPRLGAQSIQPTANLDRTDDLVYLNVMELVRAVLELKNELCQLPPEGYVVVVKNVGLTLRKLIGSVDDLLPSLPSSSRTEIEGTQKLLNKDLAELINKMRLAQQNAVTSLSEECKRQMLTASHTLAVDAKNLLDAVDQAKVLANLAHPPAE
particulars: at 1 µM
quantity.name: residual activity (%)
# unit: % | format: bare number

| smiles.input | quantity.name | measured.number |
| --- | --- | --- |
| O=C(CCCc1ccc(-c2ccccc2F)cc1)Nc1ccc(O)cc1 | residual activity | 105 |
| COc1ccc(CNC(=O)Nc2ncc([N+](=O)[O-])s2)cc1 | residual activity | 72 |
| CCCCc1c(-c2ccc(OC)cc2)[nH]c2nccnc12 | residual activity | 54 |

Find residual activity (Protein-tyrosine kinase 2-beta (Homo sapiens) (UniProt Q14289)) for the entry "CCCCc1c(-c2ccc(O)cc2)[nH]c2nccnc12"
54

# query: residual activity | item "Nc1ncnc2[nH]nc(Nc3ccc(F)cc3)c12" | system: Protein-tyrosine kinase 2-beta (Homo sapiens) (UniProt Q14289)
101

Field: residual activity (Protein-tyrosine kinase 2-beta (Homo sapiens) (UniProt Q14289)). Entry: "O=C1NC(=O)C(c2cn(CCCn3ccnc3)c3ccccc23)=C1Nc1ccccc1"
121

What residual activity appears in the records for this compound with Protein-tyrosine kinase 2-beta (Homo sapiens) (UniProt Q14289)? "O=C1Cc2c([nH]c3ccc(Br)cc23)-c2ccccc2N1"
89

----------
system.under.test: cGMP-dependent protein kinase 1 (Homo sapiens) (UniProt Q13976)
Sequence (Q13976 whole entry): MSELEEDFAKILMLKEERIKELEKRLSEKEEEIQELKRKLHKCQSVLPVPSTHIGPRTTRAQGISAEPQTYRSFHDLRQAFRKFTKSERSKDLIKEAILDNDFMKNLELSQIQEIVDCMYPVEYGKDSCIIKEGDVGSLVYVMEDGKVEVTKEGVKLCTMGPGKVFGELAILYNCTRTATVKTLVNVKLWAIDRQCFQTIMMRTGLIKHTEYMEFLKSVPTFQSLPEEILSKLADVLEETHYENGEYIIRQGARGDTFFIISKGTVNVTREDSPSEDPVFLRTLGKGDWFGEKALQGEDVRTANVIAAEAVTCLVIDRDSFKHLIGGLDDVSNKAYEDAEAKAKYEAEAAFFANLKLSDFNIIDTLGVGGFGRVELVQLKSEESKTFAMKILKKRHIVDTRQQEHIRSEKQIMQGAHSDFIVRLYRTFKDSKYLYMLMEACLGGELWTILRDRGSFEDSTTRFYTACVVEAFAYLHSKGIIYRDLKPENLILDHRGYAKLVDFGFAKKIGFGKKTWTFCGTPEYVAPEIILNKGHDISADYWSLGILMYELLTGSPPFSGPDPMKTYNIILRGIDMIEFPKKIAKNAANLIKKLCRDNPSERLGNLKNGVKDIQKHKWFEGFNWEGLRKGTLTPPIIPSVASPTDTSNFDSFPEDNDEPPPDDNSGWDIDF
particulars: at 10 µM
Recorded residual activity values for a group of compounds are listed next.
Output spec: scalar in %, unitless text.

| smiles.input | residual activity / % |
| --- | --- |
| c1ccc(-c2cnc(Nc3ccc(OCCN4CCCC4)cc3)s2)cc1 | 77 |

Query for cGMP-dependent protein kinase 1 (Homo sapiens) (UniProt Q13976): what residual activity does the record show for "O=C(CCCc1ccc(-c2ccccc2F)cc1)Nc1ccc(O)cc1" ?
72

Request body: readout residual activity, system cGMP-dependent protein kinase 1 (Homo sapiens) (UniProt Q13976), query "O=C1Nc2ccccc2/C1=C\c1c(Cl)[nH]c2ccccc12" . Return the value.
72

API: value(readout=residual activity, system=cGMP-dependent protein kinase 1 (Homo sapiens) (UniProt Q13976)) for record "NC(=O)c1ccc(-c2nc(-c3ccc4c(c3)OCCO4)c(-c3ccccn3)[nH]2)cc1"
63

Lookup: residual activity / cGMP-dependent protein kinase 1 (Homo sapiens) (UniProt Q13976) / "O=c1cc(N2CCNCC2)oc2c(-c3ccccc3)cccc12"
81

What is its residual activity for cGMP-dependent protein kinase 1 (Homo sapiens) (UniProt Q13976)? Entry: "Oc1cccc(-c2nc(N3CCOCC3)c3oc4ncccc4c3n2)c1"
90

----------
system.under.test: Serine/threonine-protein kinase N2 (Homo sapiens)
particulars: at 1 µM
quantity.name: residual activity (%)
Kindly provide the numeric value in % only, without the unit symbol.

Field: example entries. Status: answers known.
| smiles.input | unit.text | residual activity |
| --- | --- | --- |
| Cn1sc(=O)n(Cc2ccccc2)c1=O | % | 91 |
| O=C(Nc1nc2ccccc2n1CCN1CCOCC1)c1cccc([N+](=O)[O-])c1 | % | 78 |
| O=C1NC(=O)C(c2cn(CCCn3ccnc3)c3ccccc23)=C1Nc1ccccc1 | % | 26 |
| Nc1ncnc2c1c(-c1ccc(Oc3ccccc3)cc1)cn2C1CCCC1 | % | 87 |

Entry "O=C1Nc2ccc(Cl)cc2/C1=C/c1cc(Cl)c(O)c(Cl)c1" has what residual activity?
99

Fill blank: measured residual activity of the compound "NC(=O)c1ccc(-c2nc(-c3ccc4c(c3)OCCO4)c(-c3ccccn3)[nH]2)cc1" is ____.
120

I have this compound here, "O=C(CCCc1ccc(-c2ccccc2F)cc1)Nc1ccc(O)cc1" , and I need its recorded residual activity.
100

Which residual activity is listed for "O=C1NC(=O)C(c2cn(CCCO)c3ncccc23)=C1c1cnccn1" ?
100

Quick one: residual activity of "CCCC(=O)Oc1ccc2[nH]c(C(=O)c3cc4ccccc4[nH]3)cc2c1" ?
86

Which residual activity value is on record for "O=S(=O)(NCCNC/C=C/c1ccc(Br)cc1)c1cccc2cnccc12" ?
26

residual activity for "CCCCc1c(-c2ccc(O)cc2)[nH]c2nccnc12" ?
87
